In this section we review reported Percent Effect values for a set of compounds.
Test system: Wolbachia pipientis
assayMethodText: Anti-Wolbachia Cell-Based Screen
Assay type: functional
Set-up: scale not given: in the data most compounds retested in dose-response had high values
measurementConditions: 5 µM
About 13,000 (27%) of roughly 48,000 compounds showed an effect of 50% or more. This is one part of the list.
Write the number in % without appending the unit.

INSERT INTO assay_data (compound, unitname, measuredresult) VALUES
  ('CCOCC1CN(Cc2ccco2)Cc2ccnn2C1 (stereo not given)', '%', -17.9);

Q) Endpoint output: Percent Effect of CCC(O)Cn1nc(CCSC)nc1-c1ccc2[nH]ccc2c1 (stereo not given) . Value?
A) 4.032

Q) Endpoint output: Percent Effect of CCc1nc(C2CCCN(C(=O)c3cccc(Cl)c3)C2)no1 (stereo not given) . Value?
A) 126.3

Q) Endpoint output: Percent Effect of COC(=O)C(NC(=O)c1ccc(NC2CC2)nc1)c1ccccc1 (stereo not given) . Value?
A) -0.3075

Q) Endpoint output: Percent Effect of Cn1cc(CN2Cc3cn(C)nc3C(COCC3CC3)C2)cn1 (stereo not given) . Value?
A) -9.412

Q) Endpoint output: Percent Effect of CCOCC1CN(Cc2ccoc2)Cc2ncn(CC3CC3)c21 (stereo not given) . Value?
A) -9.148

Q) Endpoint output: Percent Effect of O=C(CCn1ccc2ccccc21)N1CCC(Nc2cccnc2)CC1 . Value?
A) -9.935

Q) Endpoint output: Percent Effect of CNC(=O)N1CC[C@@H]2CN(Cc3cccc(OC)c3)S(=O)(=O)[C@@H]2CC1 . Value?
A) 89.38

Q) Endpoint output: Percent Effect of CCc1nc(C2CCCN(C(=O)c3cccc(C(N)=O)c3)C2)no1 (stereo not given) . Value?
A) 115.3

Q) Endpoint output: Percent Effect of Cc1cc(C(=O)N2CCC(NC(=O)c3cccnc3)CC2)c(C)o1 . Value?
A) -8.9

Q) Endpoint output: Percent Effect of Cc1nc(C)c(C(=O)N2CCC(Nc3cccnc3)CC2)s1 . Value?
A) 6.028

Q) Endpoint output: Percent Effect of CC(=O)c1cccc(NC(=O)CN2CCCCC2C(=O)N2CCCC2)c1 (stereo not given) . Value?
A) -9.292

Q) Endpoint output: Percent Effect of COc1cccc2c1OCC(C(=O)N1CCN(S(C)(=O)=O)CC1)C2 (stereo not given) . Value?
A) 0.5994

Q) Endpoint output: Percent Effect of Cc1noc(C2CCCN(C(=O)c3cccc(Cl)c3)C2)n1 (stereo not given) . Value?
A) -10.95

Q) Endpoint output: Percent Effect of CCOC(C)c1noc(CN2CCN(c3nnc(C)s3)CC2)n1 (stereo not given) . Value?
A) -0.8403

###

System: Wolbachia pipientis
assayMethodText: Anti-Wolbachia Cell-Based Screen
Format: functional
Parameters: scale not given: in the data most compounds retested in dose-response had high values
measurementConditions: 5 µM
Screen size: about 48,000 compounds; about 13,000 (27%) showed an effect of 50% or more. This is one part of the list.
endpoint: Percent Effect

Example entries and their recorded answers appear below.
INSERT INTO assay_data (molecule, target, measuredresult) VALUES
  ('CC(C)c1cc(N2CCN(c3ccc(O)cc3)CC2)n2nccc2n1', 'Wolbachia pipientis', '-10.08%'),
  ('Cc1nc(CN2C(=O)COC3(CCN(C(N)=O)CC3)C2C)cs1 (stereo unspecified)', 'Wolbachia pipientis', '117.7%'),
  ('COCC1CC2(CCN(C(N)=O)CC2)CN1Cc1csc(C)n1.O=C(O)C(F)(F)F (stereo unspecified)', 'Wolbachia pipientis', '-7.067%'),
  ('COCC1CCN(CCCc2cn[nH]c2)CC1', 'Wolbachia pipientis', '0.277%');

Q) Query for Wolbachia pipientis: what Percent Effect does the record show for O=C(O)C(F)(F)F.O=S(=O)(c1cccs1)N1CC[C@@H](O)[C@@H]1Cc1ccncc1 ?
A) 6.31%

Q) Query for Wolbachia pipientis: what Percent Effect does the record show for O=C(NS(=O)(=O)c1cnn(-c2ccccc2F)c1)c1ccoc1 ?
A) 8.506%

Q) Query for Wolbachia pipientis: what Percent Effect does the record show for CN1CC2(CCN(C(=O)c3[nH]cnc3-c3ccccc3)C2)OC1=O (stereo unspecified) ?
A) -16.32%
